System: HSL
TEST: HSL mRNA expression in adipocytes (real-time PCR)
Assay type: cell-based, human
SETUP_CONDITIONS: differentiating adipocytes transfected with oligomeric compound; Table 75
In the oligonucleotide strings, read from the 5' end, every base follows the letter of its sugar. An asterisk marks phosphorothioate; unmarked linkages are phosphodiester. Other units and linkages are bracketed, terminal groups are in braces. A string of capitals states the bases alone. e = 2'-O-(2-methoxyethyl) (MOE); [5mC] = 5-methylcytosine
QUANTITY_KIND: HSL mRNA

Take a look at these entries with their results.
>>> observed_measurement("346691 (GCAGAAGCAUUUCCACACAC; all 2'-MOE, all phosphorothioate, methylation of C and T or U not given here) [compound 346691]")
"69 percentage of untreated control (UTC)"
>>> observed_measurement("341801 (antisense CCUAUCUCCCCUCUGGACC; all 2'-MOE, all phosphorothioate, methylation of C and T or U not given here) [compound 341801]")
"89 percentage of untreated control (UTC)"
>>> observed_measurement("346914 (AUCUGCACUGUCAGCACUUUA; all 2'-MOE, all phosphorothioate, methylation of C and T or U not given here) [compound 346914]")
"27 percentage of untreated control (UTC)"
>>> observed_measurement("344341 (CACAUGGUUAGAUCAAGCACAA; anti-miR; all 2'-MOE, all phosphorothioate, methylation of C and T or U not given here) [compound 344341]")
"33 percentage of untreated control (UTC)"

Batch: HSL mRNA for all items listed.
1. 344343 (AUGCCCUUUCAUCAUUGCACUG; anti-miR; all 2'-MOE, all phosphorothioate, methylation of C and T or U not given here) [compound 344343]
2. 328106 (antisense eA*eT*eT*eG*eA*eT*eG*e[5mC]*eG*e[5mC]*e[5mC]*eA*eT*eT*eT*eG*eG*e[5mC]*e[5mC]*eT*eA) [compound 328106]

A)
["22 percentage of untreated control (UTC)", "86 percentage of untreated control (UTC)"]

Batch: HSL mRNA for all items listed.
1. 328108 (antisense eA*eA*eA*e[5mC]*eT*eT*eG*eT*eT*eA*eA*eT*eT*eG*eA*e[5mC]*eT*eG*eT*e[5mC]*eA) [compound 328108]
2. 327897 (antisense eA*e[5mC]*eA*eG*eG*e[5mC]*e[5mC]*eG*eG*eG*eA*e[5mC]*eA*eA*eG*eT*eG*e[5mC]*eA*eA*eT*eA) [compound 327897]
3. 346910 (GCAAUCAGCUAACUACACUGCCU; all 2'-MOE, all phosphorothioate, methylation of C and T or U not given here) [compound 346910]
4. 327946 (antisense eA*eG*eG*e[5mC]*eG*eA*eA*eG*eG*eA*eT*eG*eA*e[5mC]*eA*eA*eA*eG*eG*eG*eA*eA) [compound 327946]
5. 328092 (antisense eG*eG*eT*eA*eG*eG*eT*eG*eG*eA*eA*eT*eA*e[5mC]*eT*eA*eT*eA*eA*e[5mC]*eA) [compound 328092]
6. 328120 (antisense eA*eA*eG*eA*eA*eG*eG*eA*eA*eG*eG*eA*eG*eG*eG*eA*eA*eA*eG*e[5mC]*eA) [compound 328120]
7. 328116 (antisense e[5mC]*eA*eA*eA*eA*eT*eT*eG*e[5mC]*eA*eA*eG*e[5mC]*eA*eA*eA*eT*eT*eG*e[5mC]*eA) [compound 328116]
8. 327881 (antisense eA*eA*eA*eA*eG*eA*eG*eA*e[5mC]*e[5mC]*eG*eG*eT*eT*e[5mC]*eA*e[5mC]*eT*eG*eT*eG*eA) [compound 327881]

A)
1: 75 percentage of untreated control (UTC); 2: 39 percentage of untreated control (UTC); 3: 69 percentage of untreated control (UTC); 4: 76 percentage of untreated control (UTC); 5: 80 percentage of untreated control (UTC); 6: 67 percentage of untreated control (UTC); 7: 91 percentage of untreated control (UTC); 8: 93 percentage of untreated control (UTC)

Batch: HSL mRNA for all items listed.
1. 328136 (eA*eA*e[5mC]*eT*eA*e[5mC]*eT*eT*e[5mC]*e[5mC]*eA*eG*eA*eG*e[5mC]*eA*eG*eG*eT*eG*eA; anti-miR) [compound 328136]
2. 328090 (antisense eA*eT*eT*eA*eA*eA*eA*eA*eG*eT*e[5mC]*e[5mC]*eT*e[5mC]*eT*eT*eG*e[5mC]*e[5mC]*e[5mC]*eA) [compound 328090]
3. 344342 (AUGCUUUUUGGGGUAAGGGCUU; anti-miR; all 2'-MOE, all phosphorothioate, methylation of C and T or U not given here) [compound 344342]
4. 344275 (antisense UCUAGUGGUCCUAAACAUUUCA; all 2'-MOE, all phosphorothioate, methylation of C and T or U not given here) [compound 344275]

A)
1. 37 percentage of untreated control (UTC)
2. 81 percentage of untreated control (UTC)
3. 87 percentage of untreated control (UTC)
4. 39 percentage of untreated control (UTC)

Q) Fill blank: measured HSL mRNA of the substance 346693 (CCCUCUGGUCAACCAGUCACA; all 2'-MOE, all phosphorothioate, methylation of C and T or U not given here) [compound 346693] is ____.
A) 66 percentage of untreated control (UTC)

----------
System: HeLa cells
TEST: Cell cycle assay in HeLa cells
Format: cell-based, human
SETUP_CONDITIONS: HeLa cells, 100 nM, 48 hours; percentage of cells in phase, average of replicates
In the oligonucleotide strings, read from the 5' end, every base follows the letter of its sugar. An asterisk marks phosphorothioate; unmarked linkages are phosphodiester. Other units and linkages are bracketed, terminal groups are in braces. A string of capitals states the bases alone. e = 2'-O-(2-methoxyethyl) (MOE); [5mC] = 5-methylcytosine; d = 2'-deoxy (DNA)
QUANTITY_KIND: % cells in cell cycle phase: subG1 (%)
Answers are plain numbers, in %.

Take a look at these entries with their results.
>>> observed_measurement("327902 (antisense eG*eG*e[5mC]*eT*eG*eT*e[5mC]*eA*eA*eT*eT*e[5mC]*eA*eT*eA*eG*eG*eT*e[5mC]*eA*eG) [compound 327902]")
3.1
>>> observed_measurement("328403 (antisense eA*eG*eG*e[5mC]*e[5mC]*dT*dA*dT*dT*d[5mC]*d[5mC]*dT*dG*dT*dA*eG*e[5mC]*eA*eA*eA) [compound 328403]")
3.5
>>> observed_measurement("328383 (eA*eG*eA*eG*eG*dG*dG*dA*dG*dA*d[5mC]*dG*dA*dG*dA*eG*e[5mC]*eA*e[5mC]*eT) [compound 328383]")
9.3

Q) Fill blank: measured % cells in cell cycle phase: subG1 of the substance 327905 (antisense e[5mC]*eA*eG*eA*e[5mC]*eT*e[5mC]*e[5mC]*eG*eG*eT*eG*eG*eA*eA*eT*eG*eA*eA*eG*eG*eA) [compound 327905] is ____.
A) 2.5

----------
Test system: mir-15a miRNA
TEST: pGL3-mir-15a sensor luciferase assay in HeLa cells
Assay type: cell-based, human
SETUP_CONDITIONS: pGL3-mir-15a sensor-expressing HeLa cells, 30 nM
In the oligonucleotide strings, read from the 5' end, every base follows the letter of its sugar. An asterisk marks phosphorothioate; unmarked linkages are phosphodiester. Other units and linkages are bracketed, terminal groups are in braces. A string of capitals states the bases alone. e = 2'-O-(2-methoxyethyl) (MOE); [5mC] = 5-methylcytosine
QUANTITY_KIND: Relative luciferase activity
Numbers only.

Take a look at these entries with their results.
>>> observed_measurement("356213 (eT*eA*eT*eA*eA*e[5mC]*eA*eT*eT*eG*eA*eT*eG*eT*eA*eA*eT*eA*eT*eG) [compound 356213]")
109.9
>>> observed_measurement("327951 (antisense e[5mC]*eA*e[5mC]*eA*eA*eA*e[5mC]*e[5mC]*eA*eT*eT*eA*eT*eG*eT*eG*e[5mC]*eT*eG*e[5mC]*eT*eA) [compound 327951]")
137.1
>>> observed_measurement("327901 (antisense eT*eG*eA*eG*e[5mC]*eT*eA*e[5mC]*eA*eG*eT*eG*e[5mC]*eT*eT*e[5mC]*eA*eT*e[5mC]*eT*e[5mC]*eA) [compound 327901]")
88.2

The record that follows has no Relative luciferase activity shown yet.
Q) Fill blank: measured Relative luciferase activity of the substance 342673 (antisense eA*eG*eA*e[5mC]*eT*eA*eG*e[5mC]*eG*eG*eT*eA*eT*e[5mC]*eT*eT*eT*eA*eT*e[5mC]*e[5mC]*e[5mC]) [compound 342673] is ____.
A) 85.7

----------
System: mir-15a miRNA
TEST: pGL3-mir-15a sensor luciferase assay in HeLa cells
Format: cell-based, human
SETUP_CONDITIONS: pGL3-mir-15a sensor-expressing HeLa cells, 10 nM
In the oligonucleotide strings, read from the 5' end, every base follows the letter of its sugar. An asterisk marks phosphorothioate; unmarked linkages are phosphodiester. Other units and linkages are bracketed, terminal groups are in braces. A string of capitals states the bases alone. e = 2'-O-(2-methoxyethyl) (MOE); [5mC] = 5-methylcytosine
Would you mind telling me the reported Relative luciferase activity of each entry?
One number for each entry.

Batch: Relative luciferase activity for all items listed.
1. 342673 (antisense eA*eG*eA*e[5mC]*eT*eA*eG*e[5mC]*eG*eG*eT*eA*eT*e[5mC]*eT*eT*eT*eA*eT*e[5mC]*e[5mC]*e[5mC]) [compound 342673]
2. 327901 (antisense eT*eG*eA*eG*e[5mC]*eT*eA*e[5mC]*eA*eG*eT*eG*e[5mC]*eT*eT*e[5mC]*eA*eT*e[5mC]*eT*e[5mC]*eA) [compound 327901]
3. 356213 (eT*eA*eT*eA*eA*e[5mC]*eA*eT*eT*eG*eA*eT*eG*eT*eA*eA*eT*eA*eT*eG) [compound 356213]
4. 327951 (antisense e[5mC]*eA*e[5mC]*eA*eA*eA*e[5mC]*e[5mC]*eA*eT*eT*eA*eT*eG*eT*eG*e[5mC]*eT*eG*e[5mC]*eT*eA) [compound 327951]

A)
[82.6, 96.6, 80.5, 207.6]
